system: HEK-293T; test: Multiplex assay against HEK293T; type: toxicity, cell-based; details: human, 48 h, 10 µM, compound concentration 10 uM, replicate 2
Quick rule for you: Population Apoptotic (%) at 40% or higher means yes (1), lower means no (0).

Recorded results for 10 molecules are shown here.
>>> class_assignment("N[C@](CC1c2ccccc2Oc2ccccc21)(C(=O)O)[C@H]1C[C@@H]1C(=O)O")
"yes (1)"
>>> class_assignment("Nc1nc(-c2ccco2)c2cnn(Cc3ccccc3F)c2n1")
"no (0)"
>>> class_assignment("COCCn1c(C)c(C)s/c1=N\\C(=O)C1C(C)(C)C1(C)C")
"no (0)"
>>> class_assignment("O=c1nc2[nH]c3ccccc3nc-2c(=O)[nH]1 [ALLOXAZINE]")
"yes (1)"
>>> class_assignment("CCn1c(-c2nc3cc(C(=O)N4CCCC(N)C4)ccc3n2C)cc2ccccc21.Cl (stereo not drawn)")
"yes (1)"
>>> class_assignment("CC(C)(O)C(=O)N1CCN(c2ccc(C(F)(F)F)c(C3=C(c4c[nH]c5ccccc45)C(=O)NC3=O)c2)CC1")
"yes (1)"
>>> class_assignment("Cc1cc(=O)n(C)c2cc(N3C(=O)CC[C@H](NS(=O)(=O)CC(C)C)[C@H]3c3ccc(Cl)cc3)ccc12")
"yes (1)"
>>> class_assignment("CCC(=O)OCC(=O)[C@@]1(OC(=O)CC)[C@@H](C)C[C@H]2[C@@H]3CCC4=CC(=O)C=C[C@]4(C)[C@@]3(Cl)[C@@H](O)C[C@@]21C [BECLOMETHASONE DIPROPIONATE]")
"yes (1)"
>>> class_assignment("COc1c(Nc2ccc(S(C)(=O)=O)nc2C)ncnc1OC1CCN(C(=O)OC(C)C)CC1 [ADP-597]")
"yes (1)"
>>> class_assignment("Cc1ccc(OCC(O)C(C)NC(C)C)c2c1CCC2.Cl (stereo not drawn)")
"no (0)"

Determine whether measured Population Apoptotic (%) meets or exceeds 40% for `CN1CCN(c2ccc(Nc3c4ccccc4nc4ccccc34)cc2)CC1.Cl.Cl.O`
yes (1)

Determine whether measured Population Apoptotic (%) meets or exceeds 40% for `CN1CCC(C(=O)c2cccc(NC(=O)c3c(F)cc(F)cc3F)n2)CC1`
no (0)

Determine whether measured Population Apoptotic (%) meets or exceeds 40% for `Cc1sc2c(c1C)C(c1ccc(Cl)cc1)=N[C@H](CC(=O)OC(C)(C)C)c1nnc(C)n1-2`
yes (1)

Determine whether measured Population Apoptotic (%) meets or exceeds 40% for Cl.Cl.OCCOCCN1CCN(C(c2ccccc2)c2ccc(Cl)cc2)CC1 (stereo not drawn) [HYDROXYZINE HYDROCHLORIDE]
yes (1)

Determine whether measured Population Apoptotic (%) meets or exceeds 40% for `Cc1cc(O)c(-c2ccc([C@@H](C)CN(C)C)cc2)c2c1[nH]c(=O)c1sccc12`
yes (1)

Determine whether measured Population Apoptotic (%) meets or exceeds 40% for Cc1c(Cc2ccc3ccccc3n2)c2cc(F)ccc2n1CC(=O)O [TIMAPIPRANT]
no (0)
